Data origin: PubChem BioAssay AID1963854

# viability, T/C per record follows
# Test system: 186277-243-T-J2-PDC complex spheroid viability
# assay method text: Anticancer human tumor 186277-243-T-J2-PDC patient-derived colon adenocarcinoma cell line growth inhibition [POLQ]
# applied conditions: second compound 0.1 µM; first compound 0.316 µM; stronger effect = lower value
Express it in %; write the number only.

// worked examples, viability, T/C included
molecule	measured on	viability, T/C (%)
CCc1c2c(nc3ccc(O)cc13)-c1cc3c(c(=O)n1C2)COC(=O)[C@]3(O)CC + COC1C(OC(N)=O)C(O)C(Oc2ccc3c(O)c(NC(=O)c4ccc(O)c(CC=C(C)C)c4)c(=O)oc3c2C)OC1(C)C	186277-243-T-J2-PDC complex spheroid viability	8.32
COc1cc(C2c3cc4c(cc3C(OC3OC5COC(C)OC5C(O)C3O)C3COC(=O)C23)OCO4)cc(OC)c1O (stereo not given) + Nc1ccc(C#CCN(C(=O)Cc2ncc(C(F)(F)F)cc2C(F)(F)F)c2ccc(F)cc2)nn1	186277-243-T-J2-PDC complex spheroid viability	137
O=c1[nH]cc(F)c(=O)[nH]1 + Cc1cccc(N(C)C(=O)C2C(O)CCN2c2nc(C)cc(C(F)(F)F)c2C#N)c1	186277-243-T-J2-PDC complex spheroid viability	98.9

INPUT: Quick one: viability, T/C for O=C(Nc1ccc(O)c(NS(=O)(=O)c2ccc(F)cc2)c1)c1ccc(-c2ccccc2)cc1 + COC1C(OC(N)=O)C(O)C(Oc2ccc3c(O)c(NC(=O)c4ccc(O)c(CC=C(C)C)c4)c(=O)oc3c2C)OC1(C)C ?
OUTPUT: 102

INPUT: Could you tell me which viability, T/C is on file for C=CC(=O)N1CCN(c2nc(=O)n(-c3c(C)ccnc3C(C)C)c3nc(-c4c(O)cccc4F)c(F)cc23)C(C)C1 (stereo not given) + Nc1ccc(C#CCN(C(=O)Cc2ncc(C(F)(F)F)cc2C(F)(F)F)c2ccc(F)cc2)nn1 ?
OUTPUT: 102

* * *

# Test system: 186277-243-T-J2-PDC complex spheroid viability
# assay method text: Anticancer human tumor 186277-243-T-J2-PDC cell line growth inhibition [POLQ];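 note: spheroids exposed to compounds for seven days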
# applied conditions: curve of first compound; second compound 0.0316 µM
result type: pIC50
// field semantics: pIC50 = negative decimal log of concentration (mol/L)

molecule	pIC50
C=CCn1c(=O)c2cnc(Nc3ccc(N4CCN(C)CC4)cc3)nc2n1-c1cccc(C(C)(C)O)n1 + Nc1ccc(C#CCN(C(=O)Cc2ncc(C(F)(F)F)cc2C(F)(F)F)c2ccc(F)cc2)nn1	6.67
CC1COCCN1c1cc(C2(S(C)(=N)=O)CC2)nc(-c2ccnc3[nH]ccc23)n1 (centres undefined) + Cc1cccc(N(C)C(=O)C2C(O)CCN2c2nc(C)cc(C(F)(F)F)c2C#N)c1	6.06
COc1cccc2c1C(=O)c1c(O)c3c(c(O)c1C2=O)CC(O)(C(=O)CO)CC3OC1CC(N)C(O)C(C)O1 (centres undefined) + COC1C(OC(N)=O)C(O)C(Oc2ccc3c(O)c(NC(=O)c4ccc(O)c(CC=C(C)C)c4)c(=O)oc3c2C)OC1(C)C	7.11
CC1COCCN1c1cc(-c2ccnn2C)c2ccnc(-c3ccn[nH]3)c2n1 (centres undefined) + Cc1cccc(N(C)C(=O)C2C(O)CCN2c2nc(C)cc(C(F)(F)F)c2C#N)c1	7.38
C=CCn1c(=O)c2cnc(Nc3ccc(N4CCN(C)CC4)cc3)nc2n1-c1cccc(C(C)(C)O)n1 + Cc1cccc(N(C)C(=O)C2C(O)CCN2c2nc(C)cc(C(F)(F)F)c2C#N)c1	6.67
CC[C@@]1(O)C(=O)OCc2c1cc1n(c2=O)Cc2cc3c(CN(C)C)c(O)ccc3nc2-1 + Cc1cccc(N(C)C(=O)C2C(O)CCN2c2nc(C)cc(C(F)(F)F)c2C#N)c1	7.03

INPUT: Item COc1cc(C2c3cc4c(cc3C(OC3OC5COC(C)OC5C(O)C3O)C3COC(=O)C23)OCO4)cc(OC)c1O (centres undefined) + COC1C(OC(N)=O)C(O)C(Oc2ccc3c(O)c(NC(=O)c4ccc(O)c(CC=C(C)C)c4)c(=O)oc3c2C)OC1(C)C with 186277-243-T-J2-PDC complex spheroid viability - pIC50?
OUTPUT: 6.14

INPUT: Find the measured pIC50: item COc1ccc([C@@H](O)c2cc(-c3ncnc4cc(N5CCOCC5)ccc34)c(F)cc2Cl)nn1 + COC1C(OC(N)=O)C(O)C(Oc2ccc3c(O)c(NC(=O)c4ccc(O)c(CC=C(C)C)c4)c(=O)oc3c2C)OC1(C)C , target or system 186277-243-T-J2-PDC complex spheroid viability.
OUTPUT: 5.20

* * *

# System: 186277-243-T-J2-PDC complex spheroid viability
# assay method text: Anticancer human tumor 186277-243-T-J2-PDC cell line growth inhibition [POLQ]; active means viability on the fitted dose curve at most 10% of control; inactive means the rest;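 note: spheroids exposed to compounds for seven days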
# applied conditions: second compound 0.1 µM; first compound 0.1 µM
Output constraint: value belongs to active, inactive

molecule	assigned label
Nc1ccn(C2OC(CO)C(O)C2(F)F)c(=O)n1 (stereo not given) + Cc1cccc(N(C)C(=O)C2C(O)CCN2c2nc(C)cc(C(F)(F)F)c2C#N)c1	active
Nc1ccn(C2OC(CO)C(O)C2(F)F)c(=O)n1 (stereo not given) + COC1C(OC(N)=O)C(O)C(Oc2ccc3c(O)c(NC(=O)c4ccc(O)c(CC=C(C)C)c4)c(=O)oc3c2C)OC1(C)C	active
COc1ccc([C@@H](O)c2cc(-c3ncnc4cc(N5CCOCC5)ccc34)c(F)cc2Cl)nn1 + Cc1cccc(N(C)C(=O)C2C(O)CCN2c2nc(C)cc(C(F)(F)F)c2C#N)c1	inactive
CC1COCCN1c1cc(-c2ccnn2C)c2ccnc(-c3ccn[nH]3)c2n1 (stereo not given) + COC1C(OC(N)=O)C(O)C(Oc2ccc3c(O)c(NC(=O)c4ccc(O)c(CC=C(C)C)c4)c(=O)oc3c2C)OC1(C)C	inactive

--- query ---
INPUT: What outcome does the record of this test show for COc1cc(C2c3cc4c(cc3C(OC3OC5COC(C)OC5C(O)C3O)C3COC(=O)C23)OCO4)cc(OC)c1O (stereo not given) + Nc1ccc(C#CCN(C(=O)Cc2ncc(C(F)(F)F)cc2C(F)(F)F)c2ccc(F)cc2)nn1 ?
OUTPUT: inactive

* * *

# Tested on: 186277-243-T-J2-PDC complex spheroid viability
# assay method text: Anticancer human tumor 186277-243-T-J2-PDC cell line growth inhibition [POLQ];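 note: spheroids exposed to compounds for seven days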;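 for viability, T/C: 100% = DMSO vehicle control viability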
# applied conditions: second compound 0.316 µM; first compound 0.0316 µM; stronger effect = lower value
# Method: Multicellular complex tumor spheroid response to Polymerase (POL) inhibitors (novobiocin, ART-558, RP6685) in combination with a variety of drugs and investigational agents in selected tumor cell lines The POL inhibitors (novobiocin, ART-558, and RP6685) were evaluated both individually and in combination with standard of care and investigational anticancer small molecules within a complex spheroid model of solid tumors. . […]
Listed here are compounds together with their documented viability, T/C.
Expressed in %, but write only the number.

The cases that follow already have their viability, T/C on record.
compound	unit spec	viability, T/C
CCc1c2c(nc3ccc(O)cc13)-c1cc3c(c(=O)n1C2)COC(=O)[C@]3(O)CC + Nc1ccc(C#CCN(C(=O)Cc2ncc(C(F)(F)F)cc2C(F)(F)F)c2ccc(F)cc2)nn1	%	43.2
C=CCn1c(=O)c2cnc(Nc3ccc(N4CCN(C)CC4)cc3)nc2n1-c1cccc(C(C)(C)O)n1 + Nc1ccc(C#CCN(C(=O)Cc2ncc(C(F)(F)F)cc2C(F)(F)F)c2ccc(F)cc2)nn1	%	93
C=CCn1c(=O)c2cnc(Nc3ccc(N4CCN(C)CC4)cc3)nc2n1-c1cccc(C(C)(C)O)n1 + COC1C(OC(N)=O)C(O)C(Oc2ccc3c(O)c(NC(=O)c4ccc(O)c(CC=C(C)C)c4)c(=O)oc3c2C)OC1(C)C	%	99.2
C=CC(=O)N1CCN(c2nc(=O)n(-c3c(C)ccnc3C(C)C)c3nc(-c4c(O)cccc4F)c(F)cc23)C(C)C1 (stereo not given) + COC1C(OC(N)=O)C(O)C(Oc2ccc3c(O)c(NC(=O)c4ccc(O)c(CC=C(C)C)c4)c(=O)oc3c2C)OC1(C)C	%	98
COc1cc2cc(C(=O)CCC(=O)O)sc2cc1OC + Cc1cccc(N(C)C(=O)C2C(O)CCN2c2nc(C)cc(C(F)(F)F)c2C#N)c1	%	101
CCc1cc2c(N3CCc4c(cc(Cn5ccnc5)cc4-c4cn(C)nc4C(F)(F)F)C3=O)cc(C)nc2c(OC)n1 + COC1C(OC(N)=O)C(O)C(Oc2ccc3c(O)c(NC(=O)c4ccc(O)c(CC=C(C)C)c4)c(=O)oc3c2C)OC1(C)C	%	95.6
CCc1cc2c(N3CCc4c(cc(Cn5ccnc5)cc4-c4cn(C)nc4C(F)(F)F)C3=O)ccnc2c(OC)n1 + COC1C(OC(N)=O)C(O)C(Oc2ccc3c(O)c(NC(=O)c4ccc(O)c(CC=C(C)C)c4)c(=O)oc3c2C)OC1(C)C	%	83.3
Cn1ncnc1[C@H]1c2n[nH]c(=O)c3cc(F)cc(c23)N[C@@H]1c1ccc(F)cc1 + Nc1ccc(C#CCN(C(=O)Cc2ncc(C(F)(F)F)cc2C(F)(F)F)c2ccc(F)cc2)nn1	%	119
CC1COCCN1c1cc(C2(S(C)(=N)=O)CC2)nc(-c2ccnc3[nH]ccc23)n1 (stereo not given) + Nc1ccc(C#CCN(C(=O)Cc2ncc(C(F)(F)F)cc2C(F)(F)F)c2ccc(F)cc2)nn1	%	109

Okay, next one:
INPUT: 186277-243-T-J2-PDC complex spheroid viability / viability, T/C / CC(C)n1c(=O)n(C)c2cnc3cc(F)c(-c4ccc(OCCCN5CCCCC5)nc4)cc3c21 + Cc1cccc(N(C)C(=O)C2C(O)CCN2c2nc(C)cc(C(F)(F)F)c2C#N)c1 : value?
OUTPUT: 90.6
